- target-or-system: F508delCFTR (Homo sapiens, UniProt P13569, DEL508-508)
- Construct: expressed in transfected cells; host or cells: CFBE41o- human lung-derived epithelial cells (CFBE4lo-F508delCFTR-HRP), doxycycline-inducible
- Sequence (P13569 with tags, fused parts or gaps DEL508-508): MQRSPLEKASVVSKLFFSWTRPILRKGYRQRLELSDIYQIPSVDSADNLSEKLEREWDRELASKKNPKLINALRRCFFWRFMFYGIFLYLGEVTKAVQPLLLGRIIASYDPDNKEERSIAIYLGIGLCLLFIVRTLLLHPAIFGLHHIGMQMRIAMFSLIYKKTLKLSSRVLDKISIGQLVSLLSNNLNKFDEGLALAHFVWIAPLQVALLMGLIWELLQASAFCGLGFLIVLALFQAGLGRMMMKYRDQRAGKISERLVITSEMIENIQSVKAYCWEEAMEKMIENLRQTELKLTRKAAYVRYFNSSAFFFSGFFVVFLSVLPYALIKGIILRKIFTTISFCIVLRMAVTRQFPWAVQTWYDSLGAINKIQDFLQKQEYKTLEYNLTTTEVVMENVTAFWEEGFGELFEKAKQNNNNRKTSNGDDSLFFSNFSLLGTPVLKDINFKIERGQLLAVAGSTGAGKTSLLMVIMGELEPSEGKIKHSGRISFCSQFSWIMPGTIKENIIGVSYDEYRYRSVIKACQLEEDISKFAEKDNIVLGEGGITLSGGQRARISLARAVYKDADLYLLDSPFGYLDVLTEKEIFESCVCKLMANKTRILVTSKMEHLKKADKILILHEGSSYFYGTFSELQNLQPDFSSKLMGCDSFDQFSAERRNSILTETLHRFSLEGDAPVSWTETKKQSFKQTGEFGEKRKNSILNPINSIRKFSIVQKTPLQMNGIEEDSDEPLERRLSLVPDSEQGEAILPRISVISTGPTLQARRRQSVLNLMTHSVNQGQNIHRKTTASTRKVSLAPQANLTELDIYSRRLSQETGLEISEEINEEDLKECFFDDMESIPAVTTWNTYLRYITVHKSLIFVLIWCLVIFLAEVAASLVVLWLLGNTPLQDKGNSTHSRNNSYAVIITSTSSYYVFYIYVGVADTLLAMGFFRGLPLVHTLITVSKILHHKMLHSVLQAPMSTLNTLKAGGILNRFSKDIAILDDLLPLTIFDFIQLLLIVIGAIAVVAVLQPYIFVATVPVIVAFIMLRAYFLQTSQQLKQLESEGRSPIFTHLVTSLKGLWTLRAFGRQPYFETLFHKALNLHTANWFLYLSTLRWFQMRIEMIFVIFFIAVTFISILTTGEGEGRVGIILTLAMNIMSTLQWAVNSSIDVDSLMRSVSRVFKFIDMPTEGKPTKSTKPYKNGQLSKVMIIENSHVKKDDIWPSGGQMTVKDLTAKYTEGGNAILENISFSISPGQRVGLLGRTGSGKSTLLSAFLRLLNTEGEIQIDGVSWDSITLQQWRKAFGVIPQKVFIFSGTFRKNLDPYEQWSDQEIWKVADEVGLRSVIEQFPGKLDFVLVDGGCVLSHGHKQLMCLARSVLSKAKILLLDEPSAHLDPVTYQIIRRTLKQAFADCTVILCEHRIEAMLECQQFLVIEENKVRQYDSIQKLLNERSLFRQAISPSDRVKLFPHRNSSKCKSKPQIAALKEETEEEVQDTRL
- test-name: Cell Surface Expression-Horse Radish Peroxidase (CSE-HRP) Assay
- Format: cell-based
- condition-info: test compound without co-corrector; read-out: EC50 (without co-corrector)
- Experimental: Cell Surface Expression-Horse Radish Peroxidase (CSE-HRP) Assay The development was achieved by expressing the F508delCFTR mutation along with a horseradish peroxidase (HRP) in the fourth exofacial loop, and then measuring the HRP activity using luminescence readout from these cells, CFBE4lo-F508delCFTR-HRP, that were incubated overnight with the test corrector compounds, either without or with the co-corrector. […] The raw counts from the experiment were analyzed using Accelrys® Assay Explorer v3.3. […]
Some molecules, each annotated with its measured EC50.

Here's what some known entries look like.
molecule=COc1ncc(-c2ccccc2C)cc1CN[C@H]1[C@H](C(C)(C)C)[C@@H](C(=O)O)N(C(=O)C2CCCCC2)[C@H]1c1ccccc1 property=EC50 data_value="< 1000 nM"
molecule=COc1ccc(C2(C)CCC2)cc1CN[C@H]1[C@H](C(C)(C)C)[C@@H](C(=O)O)N(C(=O)[C@@H]2CCCCO2)[C@H]1c1ccccc1F property=EC50 data_value="1000 to 10000 nM"
molecule="COc1nc(C(C)(C)C)ccc1CN[C@H]1[C@H](C(C)(C)C)[C@@H](C(=O)O)N(C(=O)C2CCC(C)(C)C2)[C@H]1c1ccccc1 (stereo partly drawn)" property=EC50 data_value="1000 to 10000 nM"
molecule="Cc1cc(C(F)(F)F)cc(N[C@@H]2[C@@H](C(C)(C)C)[C@H](C(=O)O)N(C(=O)C3CCCCC3)[C@@H]2c2cccnc2N(C)C)n1 (racemic)" property=EC50 data_value="1000 to 10000 nM"
molecule=Cc1cc(C)c(C#N)c(N[C@H]2[C@H](C(C)(C)C)[C@@H](C(=O)O)N(C(=O)C3CCCCC3)[C@H]2c2ccccc2)n1 property=EC50 data_value="1000 to 10000 nM"

Read the next record carefully.
# query: EC50 of entry COc1nc(C(C)(C)C)ccc1CN[C@H]1[C@H](C(C)(C)C)[C@@H](C(=O)O)N(C(=O)[C@H]2CCC[C@@H](OC)C2)[C@H]1c1ccccc1 (relative stereo)
1000 to 10000 nM
